Each recorded value in this set is attributed to patent US20260250325A1.

# Kd per record follows
target: hPIV-N51 (139-189) (human parainfluenza virus (hPIV))
Sequence (P06828 139-189): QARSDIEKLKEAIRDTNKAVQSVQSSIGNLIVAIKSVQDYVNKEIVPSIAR

Study these solved cases before continuing.
>>> measurement("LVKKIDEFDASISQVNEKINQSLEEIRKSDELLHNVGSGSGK (modifications not checked) [Compound 29]")
"1730 nM"
>>> measurement("FDASIEEVNRRIEESLRRIEESDRRLEEVNAEAAAKK (modifications not checked) [Compound 42]")
"485 nM"

Attention now shifts to the item below.
Exercise: Identify the reported Kd for the following entry. DEFDKKIEEVNKKIEESLKKIEESDKKLEAAAKK (modifications not checked) [Compound 17]
Key: 314 nM
